Source of measurements: PubChem BioAssay (Tox21)

Test: qHTS assay to identify small molecule antagonists of the estrogen related receptor signaling pathway with the pleiotropic PPARgamma coactivator (PGC) cell viability counter screen (AID 1224822; also: potency is read from the fitted curve at half-maximal effect;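 also: viability read after 17.5 h compound exposure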)
Conditions: ERR/PGC reporter cell line viability counter screen; series mostly up to 46.1 µM
Results filed as inconclusive are left out. Activity calls are given as the source filed them. Calls follow the shape of the dose curve; as a rule, active = well fitted cell-killing curve with a large enough effect in the repeat runs; inconclusive = weak or mixed curves, or effect the other way; inactive = flat fitted curve, though single readings scatter.
reportedEndpoint: Potency

Clc1ccc2nsnc2c1NC1=NCCN1 :: inactive
CN(C)[C@@H]1C(=O)C(C(N)=O)=C(O)[C@@]2(O)C(=O)C3=C(O)c4c(O)ccc(Cl)c4[C@@H](O)[C@H]3C[C@@H]12 :: inactive
OCCN1CCN(CC/C=C2/c3ccccc3Sc3ccc(C(F)(F)F)cc32)CC1 :: inactive
C[n+]1cc2c3c(ccc2c2ccc4cc5c(cc4c21)OCO5)OCO3 :: 0.944 µM (active)
N=C1N=C(N)c2cc3ccccc3cc21 :: 20.9 µM (active)
CSc1ccc(C(=O)c2[nH]c(=O)[nH]c2C)cc1 :: inactive

Task: Using the record for `CCN(CC)CCNC(=O)c1c(C)[nH]c(/C=C2\C(=O)Nc3ccc(F)cc32)c1C` , report its Potency.
Output: 8.74 µM (active)

Task: Queued: `CC(C)C(C)(C)C(C)(C)C(C)(C)S`
Output: inactive

Task: Next molecule up: `COCCCC/C(=N\OCCN)c1ccc(C(F)(F)F)cc1`
Output: inactive

Task: Same again, this time with CCCCC(CC)COC(=O)c1ccccc1C(=O)O (stereo not given)
Output: inactive

====

Molecular target: Aryl hydrocarbon receptor (Homo sapiens) (UniProt P35869)
Sequence (P35869 whole entry, looked up): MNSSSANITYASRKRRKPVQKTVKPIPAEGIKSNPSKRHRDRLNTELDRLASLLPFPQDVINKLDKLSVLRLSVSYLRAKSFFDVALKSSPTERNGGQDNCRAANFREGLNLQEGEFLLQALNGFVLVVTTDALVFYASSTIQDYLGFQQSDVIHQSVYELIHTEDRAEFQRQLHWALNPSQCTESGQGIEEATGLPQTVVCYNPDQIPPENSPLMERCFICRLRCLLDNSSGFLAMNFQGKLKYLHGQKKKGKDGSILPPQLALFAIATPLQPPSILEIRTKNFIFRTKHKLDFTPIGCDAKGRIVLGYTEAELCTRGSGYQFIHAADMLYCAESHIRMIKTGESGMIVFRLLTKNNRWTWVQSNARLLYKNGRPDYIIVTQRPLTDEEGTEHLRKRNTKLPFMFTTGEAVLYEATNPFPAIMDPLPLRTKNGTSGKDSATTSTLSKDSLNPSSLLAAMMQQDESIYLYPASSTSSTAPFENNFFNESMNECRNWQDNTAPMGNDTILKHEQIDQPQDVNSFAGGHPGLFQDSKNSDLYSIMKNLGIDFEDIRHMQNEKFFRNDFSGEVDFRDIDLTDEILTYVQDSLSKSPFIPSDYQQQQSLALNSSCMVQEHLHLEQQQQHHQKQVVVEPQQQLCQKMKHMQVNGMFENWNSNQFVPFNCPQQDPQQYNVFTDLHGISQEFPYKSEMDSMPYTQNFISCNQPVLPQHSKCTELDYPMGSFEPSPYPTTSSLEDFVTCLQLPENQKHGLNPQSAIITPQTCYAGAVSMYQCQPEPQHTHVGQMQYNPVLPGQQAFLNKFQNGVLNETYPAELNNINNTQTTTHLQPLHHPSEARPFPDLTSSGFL
Experiment: qHTS assay to identify small molecule that activate the aryl hydrocarbon receptor (AhR) signaling pathway (AID 743085); also: nearly all actives have a fitted effect of over 15% in size;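 as to activation: HG2L7.5c1 human HepG2 liver cells with stably integrated DRE-driven firefly reporter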
Details: HepG2 AhR-luc (HG2L7.5c1), luciferase, 24 h; series mostly up to 70.3 µM
Records with an inconclusive call do not appear. Calls of active or inactive are those of the source. Calls come from the whole dose curve; as a rule, active = well fitted activation curve with a large enough effect in the repeat runs; inconclusive = weak or mixed curves; inactive = no such curve, though single readings can be large or run the other way.
Thanks in advance; please answer with one of these: active, inactive

Use these answered entries as a reference point.
O=C(O)c1c(Cl)cccc1Cl :: inactive
CN(C)c1ccc(C2(c3ccc(N(C)C)cc3)OC(=O)c3cc(N(C)C)ccc32)cc1 :: inactive
CCN(CC)CCCC(C)Nc1c2ccc(Cl)cc2nc2ccc(OC)cc12 (stereo unspecified) :: active
CCCCCCCC[N+](CCCCCCCC)(CCCCCCCC)CCCCCCCC :: inactive
O=c1c(-c2ccccc2)c1-c1ccccc1 :: inactive

Task: Query: recorded result category for `Cc1cccc(S(=O)(=O)O)c1C` in this test
Output: inactive

Task: Entry to check: `Fc1ccc(C(c2ccc(F)cc2)N2CCN(C/C=C/c3ccccc3)CC2)cc1`
Output: inactive

====

Assay: qHTS assay to identify small molecule antagonists of the estrogen related receptor signaling pathway with the pleiotropic PPARgamma coactivator (PGC) from Tox21 10K library (AID 1224841); also: actives are mostly falling curves and most rising ones were filed inactive; nearly all actives have a fitted effect of over 50% in size
Conditions: PGC/ERR reporter cell line, ONE-Glo luciferase, 18 h; series mostly up to 92.4 µM
Results filed as inconclusive are left out. The source made the active and inactive calls. How the calls were made is not given here.
Please reply with one of these outcomes: y for active, n for inactive

Worked examples, 6 compounds total:
CCc1cc(Cc2cc(CC)cc(C(C)(C)C)c2O)c(O)c(C(C)(C)C)c1 :: y
Clc1ccc2nsnc2c1NC1=NCCN1 :: n
Cc1cc(CCN2CCN(c3nsc4ccccc34)CC2)cc2c1NC(=O)CC2(C)C :: y
Cc1cc(O)c(C(C)(C)C)cc1Sc1cc(C(C)(C)C)c(O)cc1C :: y
COc1ccc(C(=O)/C(Br)=C\C(=O)O)cc1 :: n
CC(C)CCCCCCCCCCCCCCC(=O)O :: n

Attention now shifts to the item below.
Task: Name the outcome recorded for `O=C1c2ccccc2Cc2ccccc21` in the assay.
Output: n
